Conditions: acidic group
Returns t if the recorded pKa is greater than or equal to 8, and f otherwise.

Worked set:
CC(C)(C)OC(=O)NC(CCC(N)=O)C(=O)O (stereo not given) :: f
CCCCCCCCCCCCCCCCCC(=O)O :: f
Nc1c2ccccc2[nH+]c2cc(O)ccc12 :: f
SCc1ncc[nH]1 :: t
C=C(C)[C@@H]1CN(C(C)=O)[C@H](C(=O)OC)[C@@H]1CC(=O)O :: f
NNC(=O)c1cccc(N)c1 :: t
NS(=O)(=O)c1cccc(C(=O)O)c1 :: f
C=C(SC1CCCCC1)C(=O)O :: f
CC[NH+](CC)Cc1cc([N+](=O)[O-])c2ccccc2c1O :: f
CC1CCCC(C)C1C(=O)O (stereo not given) :: f

Given the entry CC(c1ccccc1)[N+](=O)[O-] (stereo not given) , answer whether its pKa meets or surpasses 8. f

Given the entry `CC=C=CC(C)(C)C(=O)O` , answer whether its pKa meets or surpasses 8. f

Given the entry O=C1CC(Sc2ccc([N+](=O)[O-])cc2)N1 (stereo not given) , answer whether its pKa meets or surpasses 8. t

Given the entry `C[NH+](C)CCCCCCCCNC(=O)/C=N/O` , answer whether its pKa meets or surpasses 8. t
